assay: Metabolic stability in baboon brain assessed as compound remaining at 5 +/- 0.5 mCi, iv after 90 mins; assay type: ADME, organism-based; details: papio hamadryas, in vivo, 1.5 h
MEASUREMENT_NAME: Stability (%)
// return numeric value only (unit: %, not printed)

In: What Stability value was documented for this compound, CN(C)c1ccnc2sc3c(=O)n(-c4ccc(O[11CH3])cc4)cnc3c12 ?
Out: 30
